method: Pharmacokinetic experiment on SD rats (iv and intragastric)
Assay type: in vivo
condition: Sprague-Dawley, rat, plasma, po, ig, 10.00 mg/kg, read-out: Peak plasma concentration Cmax
Quick reference: Cmax of the listed items.
Reply numerically in ng/mL, unit not repeated.

stdin: Returns the measured Cmax for the input compound. Input: CN(C)c1cc2nn([C@H]3CC[C@H](CN4C[C@@H](F)[C@H](n5cc6cc(C7CCC(=O)NC7=O)c(F)cc6n5)C4)CC3)cc2cc1NC(=O)c1cnn2cccnc12 (stereo partly drawn) [TM-245]
stdout: 1190

stdin: Returns the measured Cmax for the input compound. Input: CN(C)c1cc2nn([C@H]3CC[C@H](CN4C[C@H](F)[C@@H](n5cc6cc(C7CCC(=O)NC7=O)c(F)cc6n5)C4)CC3)cc2cc1NC(=O)c1cnn2cccnc12 (stereo partly drawn) [TM-249]
stdout: 814

---
stdin: Returns the measured Cmax for the input compound. Input: CN(C)c1cc2nn([C@H]3CC[C@H](CN4C[C@@H](F)[C@H](n5cc6cc(C7CCC(=O)NC7=O)ccc6n5)C4)CC3)cc2cc1NC(=O)c1cnn2cccnc12 (stereo partly drawn) [TM-244]
stdout: 1330

stdin: Returns the measured Cmax for the input compound. Input: CN(C)c1cc2nn([C@H]3CC[C@H](CN4C[C@@H](F)[C@@H](n5cc6cc(C7CCC(=O)NC7=O)c(F)cc6n5)C4)CC3)cc2cc1NC(=O)c1cnn2cccnc12 (stereo partly drawn) [TM-240]
stdout: 976

stdin: Returns the measured Cmax for the input compound. Input: CN(C)c1cc2nn([C@H]3CC[C@H](CN4C[C@@H](n5cc6cc(C7CCC(=O)NC7=O)c(F)cc6n5)[C@@H](F)C4)CC3)cc2cc1NC(=O)c1cnn2cccnc12 (stereo partly drawn) [TM-241]
stdout: 1650

stdin: Returns the measured Cmax for the input compound. Input: CN(C)c1cc2nn([C@H]3CC[C@H](CN4CCC(n5cc6c(F)cc(N7CCC(=O)NC7=O)cc6n5)CC4)CC3)cc2cc1NC(=O)c1cnn2cccnc12 [TM-174]
stdout: 356

----------
method: Pharmacokinetic experiment on SD rats (iv and intragastric)
Format: in vivo
condition: Sprague-Dawley, rat, plasma, po, ig, 5.00 mg/kg
parameter: AUC
Reply with the number and its unit after it.

stdin: Returns the measured AUC for the input compound. Input: CN(C)c1cc2nn([C@H]3CC[C@H](CN4CC[C@@H](n5cc6cc(C7CCC(=O)NC7=O)c(F)cc6n5)[C@@H](F)C4)CC3)cc2cc1NC(=O)c1cnn2cccnc12 (stereo partly shown)
stdout: 1900 ng·h/mL

----------
assaySystem: IRAK4 (Homo sapiens)
Construct: Effect of the Compounds on IRAK4 Protein Degradation in THP1 Cells; endogenous in cells; host or cells: THP-1 cells
method: IRAK4 protein degradation in THP1 cells (Western blot)
Type: cell-based
condition: THP-1 cells, 24 h
Quick reference: DC50 of the listed items.
Reply with the number and its unit after it.

stdin: Returns the measured DC50 for the input compound. Input: "CO[C@H]1CN(C[C@H]2CC[C@H](n3cc4cc(NC(=O)c5cnn6cccnc56)c(N(C)C)cc4n3)CC2)CC[C@H]1n1cc2ccc(N3CCC(=O)NC3=O)cc2n1"
stdout: 2.86 nM

stdin: Returns the measured DC50 for the input compound. Input: CN(C)c1cc2nn(C3CCN(C[C@H]4CC[C@H](n5cc6cc(C7CCC(=O)NC7=O)ccc6n5)CC4)CC3)cc2cc1NC(=O)c1cnn2cccnc12 (stereo partly drawn)
stdout: 3.73 nM

Now consider the entry below.
stdin: Returns the measured DC50 for the input compound. Input: CN(C)c1cc2nn([C@H]3CC[C@H](CN4CCC(c5nc6cc(C7CCC(=O)NC7=O)c(F)cc6o5)CC4)CC3)cc2cc1NC(=O)c1cnn2cccnc12 (stereo partly drawn)
stdout: 11 nM

----------
assaySystem: IRAK4 (Homo sapiens, UniProt Q9NWZ3)
Construct: Effect of the Compounds on IRAK4 Protein Degradation in THP1 Cells; endogenous in cells; host or cells: THP-1 cells
Sequence (Q9NWZ3 whole entry): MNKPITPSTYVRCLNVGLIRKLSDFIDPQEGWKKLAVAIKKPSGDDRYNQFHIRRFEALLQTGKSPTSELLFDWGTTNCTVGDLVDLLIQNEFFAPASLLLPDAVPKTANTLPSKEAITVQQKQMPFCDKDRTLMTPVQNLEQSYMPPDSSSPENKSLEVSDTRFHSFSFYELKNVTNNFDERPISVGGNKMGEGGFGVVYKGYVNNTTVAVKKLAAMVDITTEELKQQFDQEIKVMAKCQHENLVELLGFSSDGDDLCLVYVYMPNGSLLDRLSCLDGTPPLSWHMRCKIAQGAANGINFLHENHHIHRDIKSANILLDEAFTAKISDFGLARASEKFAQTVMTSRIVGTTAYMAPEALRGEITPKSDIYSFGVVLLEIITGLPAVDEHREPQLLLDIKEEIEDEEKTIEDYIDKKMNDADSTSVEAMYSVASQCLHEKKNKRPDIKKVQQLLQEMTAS
method: IRAK4 protein degradation in THP1 cells (Western blot)
Format: cell-based
condition: THP-1 cells, 24 h
Description: THP-1 cells were seeded into a 96-well cell culture plate, with 2×10^5 cells and 90 μL of culture medium per well. The cell culture plate was cultured in an incubator with 5% CO2 at 37° C. overnight. […] Protein quantification was performed using the BCA protein quantification kit, followed by the preparation of Western blot samples. […]
Quick reference: DC50 of the listed items.
Reply numerically in nM, unit not repeated.

Reference set, count: 3
stdin: Returns the measured DC50 for the input compound. Input: CN(C)c1cc2nn([C@H]3CC[C@H](CN4C[C@@H](F)[C@@H](n5cc6ccc(N7CCC(=O)NC7=O)cc6n5)C4)CC3)cc2cc1NC(=O)c1cnn2cccnc12 [TM-202]
stdout: 0.95

stdin: Returns the measured DC50 for the input compound. Input: C[C@@H]1CN(C[C@H]2CC[C@H](n3cc4cc(NC(=O)c5cnn6cccnc56)c(N(C)C)cc4n3)CC2)CC[C@H]1n1cc2ccc(C3CCC(=O)NC3=O)cc2n1 (stereo partly drawn) [TM-142]
stdout: 0.77

stdin: Returns the measured DC50 for the input compound. Input: CN(C)c1cc2nn([C@H]3CC[C@H](CN4CC5(CC(n6cc7ccc(N8CCC(=O)NC8=O)cc7n6)C5)C4)CC3)cc2cc1NC(=O)c1cnn2cccnc12 [TM-215]
stdout: 0.95

---
stdin: Returns the measured DC50 for the input compound. Input: CN(C)c1cc2nn([C@H]3CC[C@H](CN4CC[C@H](n5cc6cc(N7CCC(=O)NC7=O)c(F)cc6n5)[C@@H](F)C4)CC3)cc2cc1NC(=O)c1cnn2cccnc12 [TM-131]
stdout: 0.81

stdin: Returns the measured DC50 for the input compound. Input: CN(C)c1cc2nn([C@H]3CC[C@H](CN4CCC(n5cc6cc(NC7CCC(=O)NC7=O)ccc6n5)CC4)CC3)cc2cc1NC(=O)c1cnn2cccnc12 (stereo partly drawn) [TM-196]
stdout: 2.84

stdin: Returns the measured DC50 for the input compound. Input: CN(C)c1cc2nn(C3CCC(CN4CCC[C@H](n5cc6cc(N7CCC(=O)NC7=O)ccc6n5)C4)CC3)cc2cc1NC(=O)c1cnn2cccnc12 (stereo partly drawn) [TM-204]
stdout: 1.69

----------
Test system: R848-induced IL-6 secretion in human peripheral blood mononuclear cells (PBMCs)
method: Inhibition of R848-induced IL-6 secretion in human PBMCs (IL-6 ELISA)
Format: cell-based
condition: PBMC, R848 2.5 μg/mL, 20 h pre-incubation, 24 h stimulation
Quick reference: IC50 of the listed items.
Reply numerically in nM, unit not repeated.

Reference set, count: 3
stdin: Returns the measured IC50 for the input compound. Input: "CN(C)c1cc2nc([C@H]3CC[C@H](CN4C[C@@H](n5cc6cc(N7CCC(=O)NC7=O)ccc6n5)[C@@H](F)C4)CC3)cn2nc1NC(=O)c1cnn2cccnc12"
stdout: 19.5

stdin: Returns the measured IC50 for the input compound. Input: "CN(C)c1cc2nn([C@H]3CC[C@H](CN4C[C@@H](F)[C@@H](n5cc6cc(N7CCC(=O)NC7=O)c(F)cc6n5)C4)CC3)cc2cc1NC(=O)c1cnn2cccnc12"
stdout: 10.4

stdin: Returns the measured IC50 for the input compound. Input: CN(C)c1cc2nn([C@H]3CC[C@H](CN4C[C@@H](F)[C@H](n5cc6cc(C7CCC(=O)NC7=O)c(F)cc6n5)C4)CC3)cc2cc1NC(=O)c1cnn2cccnc12 (some centres unmarked)
stdout: 4.02

---
stdin: Returns the measured IC50 for the input compound. Input: "CN(C)c1cc2nn([C@H]3CC[C@H](CN4CCC(n5cc6c(F)cc(N7CCC(=O)NC7=O)cc6n5)CC4)CC3)cc2cc1NC(=O)c1cnn2cccnc12"
stdout: 3.19

stdin: Returns the measured IC50 for the input compound. Input: "CN(C)c1cc2nn([C@H]3CC[C@H](CN4C[C@@H](F)[C@@H](n5cc6ccc(N7CCC(=O)NC7=O)cc6n5)C4)CC3)cc2cc1NC(=O)c1cnn2cccnc12"
stdout: 3.61

----------
method: Pharmacokinetic experiment on SD rats (iv and intragastric)
Type: in vivo
condition: Sprague-Dawley, rat, plasma, iv, 1.00 mg/kg
parameter: AUC(0-inf) (µg·h/mL)
Reply numerically in µg·h/mL, unit not repeated.

Reference set, count: 3
stdin: Returns the measured AUC(0-inf) for the input compound. Input: CN(C)c1cc2nn([C@H]3CC[C@H](CN4CC[C@@H](n5cc6cc(C7CCC(=O)NC7=O)c(F)cc6n5)[C@@H](F)C4)CC3)cc2cc1NC(=O)c1cnn2cccnc12 (stereo partly shown)
stdout: 1.22

stdin: Returns the measured AUC(0-inf) for the input compound. Input: CN(C)c1cc2nn([C@H]3CC[C@H](CN4C[C@H](F)[C@@H](n5cc6cc(C7CCC(=O)NC7=O)c(F)cc6n5)C4)CC3)cc2cc1NC(=O)c1cnn2cccnc12 (stereo partly shown)
stdout: 2.4

stdin: Returns the measured AUC(0-inf) for the input compound. Input: CN(C)c1cc2nn([C@H]3CC[C@H](CN4C[C@@H](F)[C@@H](n5cc6cc(C7CCC(=O)NC7=O)c(F)cc6n5)C4)CC3)cc2cc1NC(=O)c1cnn2cccnc12 (stereo partly shown)
stdout: 2.67

Now consider the entry below.
stdin: Returns the measured AUC(0-inf) for the input compound. Input: "CN(C)c1cc2nn([C@H]3CC[C@H](CN4CCC(n5cc6c(F)cc(N7CCC(=O)NC7=O)cc6n5)CC4)CC3)cc2cc1NC(=O)c1cnn2cccnc12"
stdout: 1.7
